- PROTOCOL DETAILS: Cytotoxicity MTT assay (0.1–1000 µM), CC50
- Assay type: cell-based, Human
- MEASUREMENT SETUP: human, MRC-5 cells, MRC-5, MTT, read-out: CC50 Normal Cell Lines MRC-5
# Lookup of reported CC50 at 48 h keyed by entry
Only the number, expressed in µM, is required.

SMILES TEXT: Cc1c(C)[n+](Cc2cccc(OC(F)(F)F)c2)cn1Cc1ccccc1.[Cl-]
CC50 at 48 h (µM): 36.7
--
SMILES TEXT: Cc1c(C)[n+](OCc2ccccc2)cn1Cc1ccccc1C(F)(F)F.[Br-]
CC50 at 48 h (µM): 45.7
--
SMILES TEXT: Cc1c(C)[n+](OCc2ccccc2)cn1Cc1cccc(OC(F)(F)F)c1.[Br-]
CC50 at 48 h (µM): 24.3
--
SMILES TEXT: Cc1c(C)[n+](Cc2cccc(C(F)(F)F)c2)cn1Cc1ccccc1.[Cl-]
CC50 at 48 h (µM): 54.3
--
SMILES TEXT: Cc1c(C)[n+](OCc2ccccc2)cn1Cc1ccc(C(F)(F)F)cc1.[Br-]
CC50 at 48 h (µM): 59.7

Q: Need CC50 at 48 h of `Cc1c(C)[n+](OCc2ccccc2)cn1Cc1cccc(F)c1.[Br-]` , thanks.
Ans: 206

----------
- Test system: Human herpesvirus 5 (HCMV)
- PROTOCOL DETAILS: Antiviral screening at 10 µM, plaque reduction
- Assay type: cell-based
- MEASUREMENT SETUP: Human betaherpesvirus 5, antiviral screening, HCMV-infected cells, read-out: Cell line (viability %) HCMV
// NB: equality with 2% counts as class 0; only viability at 10 µM strictly below is class 1

COMPOUND: S=c1n(Cc2ccccc2)c(-c2ccccc2)c(-c2ccccc2)n1Cc1ccccc1 [Compound 10c]
QUALITATIVE LABEL: class 0

COMPOUND: COc1cccc(Cn2c[n+](Cc3ccccc3)c(-c3ccccc3)c2-c2ccccc2)c1 [9c[PF6]]
QUALITATIVE LABEL: class 1

COMPOUND: c1c[n+](OC23CC4CC(CC(C4)C2)C3)cn1OC12CC3CC(CC(C3)C1)C2
QUALITATIVE LABEL: class 0

COMPOUND: c1ccc(Cn2c[n+](Cc3ccccc3)c(-c3ccccc3)c2-c2ccccc2)cc1 [9b[PF6]]
QUALITATIVE LABEL: class 0

COMPOUND: Cc1c(C)n(Cc2ccccc2)c(=S)n1Cc1ccccc1 [Compound 10a]
QUALITATIVE LABEL: class 0

Q: Regarding COc1cccc(Cn2c(C)c(C)n(Cc3ccccc3)c2=S)c1 [Compound 10b] , kindly confirm whether its viability at 10 µM is beneath 2%.
Ans: class 1

Q: Would you kindly verify if viability at 10 µM of COc1cccc(Cn2c(-c3ccccc3)c(-c3ccccc3)n(Cc3ccccc3)c2=S)c1 [Compound 10d] is strictly less than 2%?
Ans: class 1

Q: Given the entry c1c[n+](C23CC4CC(CC(C4)C2)C3)cn1C12CC3CC(CC(C3)C1)C2 [Compound 2a, 1,3-diadamantyl imidazolium bromide, reference compound] , would its reported viability at 10 µM be below 2%?
Ans: class 0

----------
Reported values of log10(CC50 at 48 h) for individual entries
- PROTOCOL DETAILS: Cytotoxicity MTT assay (0.1–1000 µM), CC50
- Format: cell-based, Human
- MEASUREMENT SETUP: human, HepG2 cells, read-out: CC50 Cancer Cell Lines HepG2
Please interpret these as log10 of CC50 at 48 h where CC50 at 48 h is in µM.

Q: Reported log10(CC50 at 48 h), compound Cc1c(C)[n+](OCc2ccccc2)cn1Cc1cccc(OC(F)(F)F)c1.[Br-] [Compound 8b] : ____
Ans: 2.21

Q: Requested read-out: log10(CC50 at 48 h). Entry: Cc1c(C)[n+](OCc2ccccc2)cn1Cc1ccccc1C(F)(F)F.[Br-] [Compound 8c]
Ans: 1.98

Q: # lookup: log10(CC50 at 48 h) of Cc1c(C)[n+](Cc2cccc(F)c2)cn1Cc1ccccc1.[Cl-] [Compound 1e]
Ans: 2.63

Q: Entry Cc1c(C)[n+](OCc2ccccc2)cn1Cc1ccc(C(F)(F)F)cc1.[Br-] [Compound 8d] : reported log10(CC50 at 48 h) = ?
Ans: 2.51

Q: Item Cc1c(C)[n+](OCc2ccccc2)cn1Cc1cccc(F)c1.[Br-] [Compound 8a] has what recorded log10(CC50 at 48 h)?
Ans: 2.56

Q: Reported log10(CC50 at 48 h), compound Cc1c(C)[n+](Cc2cccc(OC(F)(F)F)c2)cn1Cc1ccccc1.[Cl-] [Compound 1f] : ____
Ans: 2.18

Q: # get_value(readout='log10(CC50 at 48 h)', item= FC(F)(F)c1cccc(C[n+]2cn(Cc3ccccc3)c(-c3ccccc3)c2-c2ccccc2)c1.[Br-] [Compound 9a] )
Ans: 0.84

Q: Would you kindly share the measured log10(CC50 at 48 h) for Cc1c(C)[n+](Cc2cccc(C(F)(F)F)c2)cn1Cc1ccccc1.[Cl-] [Compound 1g] ?
Ans: 2.11
